The reported numbers originate from the supplement of paper PMC12645437.

Biological target: T1, CRBN, Q96SW2;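 further: pooled lentiviral library of zinc finger degron-EGFP fusions in mCherry-positive Jurkat cells, FACS-sorted after compound exposure, with degron abundance counted by next-generation sequencing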
T1 chain: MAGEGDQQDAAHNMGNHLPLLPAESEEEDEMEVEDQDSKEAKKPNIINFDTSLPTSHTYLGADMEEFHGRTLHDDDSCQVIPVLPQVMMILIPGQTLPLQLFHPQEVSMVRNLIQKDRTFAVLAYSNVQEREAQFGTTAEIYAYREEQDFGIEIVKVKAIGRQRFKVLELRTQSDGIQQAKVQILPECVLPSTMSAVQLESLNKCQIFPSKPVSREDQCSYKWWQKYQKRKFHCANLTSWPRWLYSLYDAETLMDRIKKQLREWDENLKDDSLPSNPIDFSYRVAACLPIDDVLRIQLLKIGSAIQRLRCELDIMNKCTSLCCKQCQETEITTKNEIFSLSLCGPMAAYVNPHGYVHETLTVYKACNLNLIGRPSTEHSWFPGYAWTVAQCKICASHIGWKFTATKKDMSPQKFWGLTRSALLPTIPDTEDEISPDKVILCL
Experiment: log2 fold change of degron read counts, EGFP-low vs EGFP+ sorted cells (limma voom), compound-induced degradation; higher = more compound-induced degradation of the degron-EGFP fusion; degrons are variants of IKZF1/3 zinc finger 2; compound dose not given here
Conditions: Jurkat; 18 h; compound: compound 33 (diphenyl IMiD analogue)
Over roughly 8,300 sequences, “log2 fold change of degron read counts, EGFP-low vs EGFP+ sorted cells (limma voom), compound-induced degradation” has its median near -1.1; the highest 2% begin near 3.2. This excerpt belongs to a sample that is enriched for the highest values.
measurement-type: log2 fold change of degron read counts

Suppose we examine the sequence FKCDICGAGFTQKGNLLRHIKL [46F_47K_49D_50I_52G_53A_54G_55F_67L_, Q9UKT9] ; what log2 fold change of degron read counts value has been reported?
-2.3

Suppose we examine the sequence LLCNQCGFPCTQKGNLLRHIKL [46L_47L_49N_50Q_52G_53F_54P_55C_67L_, Q9UKT9] ; what log2 fold change of degron read counts value has been reported?
-1.69

Suppose we examine the sequence FLCNQCGRHFTQKGNLLRHIKL [46F_47L_49N_50Q_52G_53R_54H_55F_67L_, Q9UKT9] ; what log2 fold change of degron read counts value has been reported?
-2.64

Suppose we examine the sequence FHCNQCGHKFTQKGNLLRHIKL [46F_47H_49N_50Q_52G_53H_54K_55F_67L_, Q9UKT9] ; what log2 fold change of degron read counts value has been reported?
-2.84
